// values below are reported Solubility (%) in butyl acetate
experiment: Solubility in n-butyl acetate; type: physicochemical; settings: 1 g crystalline diazo compound stirred 2 hours in 25 g n-butyl acetate
Your answer is read as %, so omit the unit and give the number.

Some molecules with known Solubility (%) in butyl acetate results, for comparison:
1) CCCCCCCCCCCCCCCC(=O)c1ccc(OS(=O)(=O)C2=CC(=[N+]=[N-])C(=O)c3ccccc32)cc1OS(=O)(=O)C1=CC(=[N+]=[N-])C(=O)c2ccccc21 :: 1.75
2) [N-]=[N+]=C1C=Cc2c(cccc2S(=O)(=O)Oc2ccc(C(=O)c3ccccc3)c(OS(=O)(=O)c3cccc4c3C=CC(=[N+]=[N-])C4=O)c2OS(=O)(=O)c2cccc3c2C=CC(=[N+]=[N-])C3=O)C1=O [V, reference compound] :: 0.50

response.value for CCCCCCCCCCCCCCCC(=O)c1ccc(OS(=O)(=O)c2cccc3c2C=CC(=[N+]=[N-])C3=O)cc1OS(=O)(=O)c1cccc2c1C=CC(=[N+]=[N-])C2=O (field: Solubility (%) in butyl acetate) = 1.03

response.value for CCCCCCCCCCCCOC(=O)c1ccc(OS(=O)(=O)c2cccc3c2C=CC(=[N+]=[N-])C3=O)cc1OS(=O)(=O)c1cccc2c1C=CC(=[N+]=[N-])C2=O (field: Solubility (%) in butyl acetate) = 2.03

Recorded values, source patent US4409314A.
